Kindly supply the reported Ki values for the records listed here.
# assayed.target: Alpha-1A adrenergic receptor (Rattus norvegicus, UniProt P43140)
# Sequence (P43140 whole entry): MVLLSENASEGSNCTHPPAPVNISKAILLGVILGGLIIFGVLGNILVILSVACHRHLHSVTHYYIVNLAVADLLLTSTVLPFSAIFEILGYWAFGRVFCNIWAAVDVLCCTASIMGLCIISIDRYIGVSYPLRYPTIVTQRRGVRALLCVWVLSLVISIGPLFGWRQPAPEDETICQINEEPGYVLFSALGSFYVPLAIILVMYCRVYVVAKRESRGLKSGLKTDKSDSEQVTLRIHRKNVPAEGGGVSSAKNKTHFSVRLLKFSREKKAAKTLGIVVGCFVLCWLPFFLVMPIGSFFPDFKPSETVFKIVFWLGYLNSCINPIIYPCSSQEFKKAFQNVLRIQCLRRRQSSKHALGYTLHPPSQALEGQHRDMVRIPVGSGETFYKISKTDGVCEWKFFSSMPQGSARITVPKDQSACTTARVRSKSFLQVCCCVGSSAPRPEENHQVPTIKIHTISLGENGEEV
Counter-ions that a name gives are not always drawn.
Give bare numbers, in µM.

Record excerpt, results attached:
COc1ccc2c(c1)CN(C)CC2c1ccc(Cl)c(Cl)c1 (stereo not given) :: 0.48
CNCCC(Oc1ccccc1OC)c1ccccc1 (stereo not given) :: 4.3
C(=C\c1ccccc1)/CN1CCN(CCOC(c2ccccc2)c2ccccc2)CC1 :: 0.27
CN(C)CCCC1(c2ccc(F)cc2)OCc2cc(C#N)ccc21 (stereo not given) [CITALOPRAM HYDROBROMIDE] :: 1.6
Fc1ccc(C(OCCN2CCN(C/C=C/c3ccccc3)CC2)c2ccc(F)cc2)cc1 :: 2.2
CN[C@H]1C[C@H](c2ccc(Cl)c(Cl)c2)c2ccccc21 :: 0.74

Proceed to the following item.
**Q:** What Ki value was documented for this compound, CN1Cc2c(N)cccc2[C@H](c2ccccc2)C1 ?
**A:** 1.2
